Measured values drawn from PubChem BioAssay (NCI) for this set.

- Test system: MALME-3M melanoma
- assay.details: NCI tumour cell line growth inhibition, 48 h
property.name: TGI (µM)

compound	property.name	result.number
NS(=O)(=O)c1ccc(NNc2c3ccccc3nc3c(C(=O)Nc4ccc(S(N)(=O)=O)cc4)cccc23)cc1	TGI	99.8
CCC[CH2][Sn]1([CH2]CCC)[O]C(=O)c2cccnc2[S]1	TGI	4.31
COC(=O)N1C=Cc2c(c(C)c3c([nH]c4ccccc43)c2C)C1C (stereo not given)	TGI	36.3
CC(C)=CCN1c2ccccc2[C@@]2(CC=C(C)C)CCN(C)[C@@H]12	TGI	38.4
O=C1/C(=C/c2ccc(Cl)cc2)NC(=S)N1CN1CCCCC1	TGI	88.7

====

- Tested on: RPMI-8226 leukemia
- assay.details: NCI tumour cell line growth inhibition, 48 h
In this section, each of the molecules is paired with its reported TGI.

smiles.entry	system.tested	TGI / µM
CC(C)=CCN1c2ccccc2[C@@]2(CC=C(C)C)CCN(C)[C@@H]12	RPMI-8226 leukemia	51
CCN(CC)c1ccc(C=C2C(=O)NC(=S)NC2=O)cc1	RPMI-8226 leukemia	5.49

====

# TGI per record follows
- System: SK-MEL-28 melanoma
- assay.details: NCI tumour cell line growth inhibition, 48 h
property.name: TGI

1. CC(=O)OC1=C(c2ccccc2)S(=O)(=O)c2ccccc21 > 100 µM
2. COc1ccccc1Nc1nc(N)nc(N)c1N > 100 µM
3. O=C1C(=C2C(=O)c3ccccc3[N+]2=O)N([O-])c2ccccc21 > 100 µM

====

- System: NCI-H522 lung
- assay.details: NCI tumour cell line growth inhibition, 48 h; in the data active = GI50 below about 0.43 µM; inactive = the rest
Classes used: active, inactive

compound	system.tested	label.class
CC(=O)Nc1ccc(S(=O)(=O)N2C(=O)CCC2C(=O)Nc2ccccc2)cc1 (stereo unspecified)	NCI-H522 lung	inactive
O=C(c1ccco1)c1c(C(F)(F)F)n([O-])c2cc(Cl)c(Cl)cc2[n+]1=O	NCI-H522 lung	active
Cc1ccccc1C1N=C2Oc3ccccc3C=C2C(=O)N1 (stereo unspecified)	NCI-H522 lung	inactive
CC(=O)[O-].O=C([CH-]C(=O)c1ccccc1)c1ccccc1.O=C([CH-]C(=O)c1ccccc1)c1ccccc1.[Dy+3]	NCI-H522 lung	inactive
Fc1cnccc1-c1nc2ccc3[nH]ncc3c2c2c1CCCC2	NCI-H522 lung	inactive
CC1(C)N=C(N)N=C(N)N1c1cccc(CC(=O)Nc2ccccc2)c1	NCI-H522 lung	inactive
N/C(=N\O)c1cn(C2OC(CO)C(O)C2O)c2ncnc(N)c12 (stereo unspecified)	NCI-H522 lung	active
CN(C)CCCn1c2c(c3ccc(N4CCNCC4)cc3c1=O)C(=O)c1ccccc1-2	NCI-H522 lung	inactive
Cc1nn(-c2ccccc2)c2c1[C@@H](C)[C@H]1CC3(CC4(C)C[C@@H]3C1(C)c1c(C)nn(-c3ccccc3)c1N4C)N2C (stereo partly specified)	NCI-H522 lung	inactive
O=c1[nH]c(-c2ccncc2)nc2sc3c(c12)CCCCCC3	NCI-H522 lung	inactive
CC1(C)CCC(c2ccc(Cl)cc2)=C(CN2CCN(c3ccc(C(=O)NS(=O)(=O)c4ccc(N[C@H](CCN5CCOCC5)CSc5ccccc5)c(S(=O)(=O)C(F)(F)F)c4)cc3)CC2)C1	NCI-H522 lung	inactive

====

- Test system: NCI-H522 lung
- assay.details: NCI tumour cell line growth inhibition, 48 h
property.name: TGI

molecule	result
N/C(=N\O)c1cn(C2OC(CO)C(O)C2O)c2ncnc(N)c12 (centres undefined)	0.401 µM
Nc1nc(NCc2ccccc2)cc(NCc2ccccc2)n1	19.2 µM
N=C(N)c1ccc(-c2ccc(-c3cccs3)s2)cc1F	3.88 µM
CCCN1CCCC(c2ccc(Nc3nc(Nc4cc(F)ccc4C(N)=O)c4cc[nH]c4n3)c(OC)c2)C1 (centres undefined)	6.01 µM
